- assay.target: HLA-A*01:01 (Homo sapiens, UniProt P04439, A114D/A174V/A182V/D101N/D185E/E176A/E190D/L180R/Q94H/R68K/S129P/T187R/V100A/V91M/W191G)
- run.description: MHC binding assay, UV-ligand exchange with β2m ELISA, HLA-A*01:01
- condition.label: peptide exchange yield
measurement.label: Peptide exchange

5 (GTDVLSTRY; listed as Homo sapiens) [compound 5]	“+++” (>50 =+++)
196 (FTDIDGQVY; listed as Homo sapiens) [compound 196]	“+++” (>50 =+++)

* * *

- assay.target: HLA-A*24:02 (Homo sapiens, UniProt P04439, D101N/D140Y/D185E/E176V/E190D/F33S/G103R/G107R/I119L/I121M/I306V/K335N/L105A/L180Q/L300P/N151K/N90K/Q86E/Q94H/R106L/R138H/R89G/T104I/T345S/V100E/W191G/Y123F)
- run.description: MHC binding assay, UV-ligand exchange with β2m ELISA, HLA-A*24:02
- condition.label: peptide exchange yield
measurement.label: Peptide exchange

67 (VFLPSEGFNF; listed as Homo sapiens) [compound 67]	“+++” (>50 = +++)
53 (KYIEYYLVL; listed as Homo sapiens) [compound 53]	“++++” (>75% = ++++)
222 (RYLDEINLL; listed as Homo sapiens) [compound 222]	“+++” (>50 = +++)
55 (IFVARLYYF; listed as Homo sapiens) [compound 55]	“++++” (>75% = ++++)

Enquiry: Determine from records and report Peptide exchange for 56 (KYSSGFRNI; listed as Homo sapiens) [compound 56]
Return: “+++” (>50 = +++)

Where these numbers come from: patent US11135246B2
